Catalogue of molecules with associated pest or weed control at 500 ppm
# Tested on: Rhizoctonia solani
# assay.overview: Control by seed-soaking: Rhizoctonia damping-off in cucumber
# Format: in vivo
# run.parameters: 360 h, seed-soaking, 500 ppm, observed 15 days after sowing, control effect by equation, read-out: Control Index Rhizoctonia Damping-Off in Cucumber

- molecule: "Cc1cc(C(O)(Cn2cncn2)c2ccc(Cl)cc2)no1 (stereo not shown)"
  pest or weed control at 500 ppm: "94%"
- molecule: "Cc1onc(C(O)(Cn2cncn2)c2ccc(F)cc2)c1Cl (stereo not shown)"
  pest or weed control at 500 ppm: "85%"
- molecule: "Cc1cc(C(O)(Cn2cncn2)c2ccc(Cl)cc2Cl)no1 (stereo not shown)"
  pest or weed control at 500 ppm: "94%"
- molecule: "OC(Cn1cncn1)(c1ccc(Cl)cc1)c1ccon1 (stereo not shown)"
  pest or weed control at 500 ppm: "100%"
- molecule: "Cc1cc(C(O)(Cn2cncn2)c2ccc(F)cc2F)no1 (stereo not shown)"
  pest or weed control at 500 ppm: "94%"
- molecule: "Cc1cc(C(O)(Cn2cncn2)c2ccc(F)cc2)no1 (stereo not shown)"
  pest or weed control at 500 ppm: "85%"
- molecule: "OC(Cn1cncn1)(c1ccc(F)cc1)c1ccon1 (stereo not shown)"
  pest or weed control at 500 ppm: "90%"
- molecule: "OC(Cn1cncn1)(c1ccon1)c1ccc(Cl)cc1Cl (stereo not shown)"
  pest or weed control at 500 ppm: "94%"
- molecule: "OC(Cn1cncn1)(c1ccon1)c1ccc(F)cc1F (stereo not shown)"
  pest or weed control at 500 ppm: "86%"
- molecule: "Cc1onc(C(O)(Cn2cncn2)c2ccc(Cl)cc2)c1Cl (stereo not shown)"
  pest or weed control at 500 ppm: "88%"
